tested on: ATP; experiment: switch fluorescence ratio, 500 uM ATP over buffer (Cy3 cluster intensity, sum of 5 cycles each) (fold (ratio)); higher = stronger signal-on switching upon ATP binding; sequences stand for … in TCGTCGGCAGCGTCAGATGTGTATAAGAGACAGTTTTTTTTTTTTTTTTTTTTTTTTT…TC; details: aptamer strand: ATP DNA aptamer (quencher-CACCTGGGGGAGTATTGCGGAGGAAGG + anchor), 100 nM annealed; ATP concentration: 500 uM;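 further: ATP exposure 15 min at 22 °C before imaging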

>  <seq>
ATGGGAGTTT

>  <system>
ATP;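 further: ATP exposure 15 min at 22 °C before imaging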

>  <switch fluorescence ratio>
1.01

$$$$
>  <seq>
TTATCCGGGT

>  <system>
ATP;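 further: ATP exposure 15 min at 22 °C before imaging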

>  <switch fluorescence ratio>
0.966

$$$$
>  <seq>
CGGGGTTTTG

>  <system>
ATP;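 further: ATP exposure 15 min at 22 °C before imaging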

>  <switch fluorescence ratio>
1.01

$$$$
>  <seq>
GTTAACGCGT

>  <system>
ATP;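 further: ATP exposure 15 min at 22 °C before imaging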

>  <switch fluorescence ratio>
1.02

$$$$
>  <seq>
TCAAGGGGGC

>  <system>
ATP;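 further: ATP exposure 15 min at 22 °C before imaging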

>  <switch fluorescence ratio>
0.991

$$$$
>  <seq>
CGCTATGGGA

>  <system>
ATP;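 further: ATP exposure 15 min at 22 °C before imaging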

>  <switch fluorescence ratio>
1.02

$$$$
>  <seq>
GGGGCAGTCA

>  <system>
ATP;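 further: ATP exposure 15 min at 22 °C before imaging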

>  <switch fluorescence ratio>
0.978

$$$$
>  <seq>
TGGGGTTG

>  <system>
ATP;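 further: ATP exposure 15 min at 22 °C before imaging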

>  <switch fluorescence ratio>
0.993

$$$$
>  <seq>
TTGTGGCAGG

>  <system>
ATP;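 further: ATP exposure 15 min at 22 °C before imaging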

>  <switch fluorescence ratio>
1.01

$$$$
>  <seq>
CGACTTTTAT

>  <system>
ATP;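 further: ATP exposure 15 min at 22 °C before imaging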

>  <switch fluorescence ratio>
0.982

$$$$
>  <seq>
TGTTTAAGGT

>  <system>
ATP;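 further: ATP exposure 15 min at 22 °C before imaging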

>  <switch fluorescence ratio>
0.987

$$$$
>  <seq>
AAATAAATTT

>  <system>
ATP;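 further: ATP exposure 15 min at 22 °C before imaging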

>  <switch fluorescence ratio>
1.01

$$$$
>  <seq>
GACTGGTTGG

>  <system>
ATP;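 further: ATP exposure 15 min at 22 °C before imaging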

>  <switch fluorescence ratio>
1.02

$$$$
>  <seq>
TGTTGGGGTA

>  <system>
ATP;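 further: ATP exposure 15 min at 22 °C before imaging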

>  <switch fluorescence ratio>
1.03

$$$$
>  <seq>
TTGGGTAGTG

>  <system>
ATP;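 further: ATP exposure 15 min at 22 °C before imaging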

>  <switch fluorescence ratio>
0.993

$$$$
>  <seq>
TTCTTGGGGG

>  <system>
ATP;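 further: ATP exposure 15 min at 22 °C before imaging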

>  <switch fluorescence ratio>
1.01

$$$$
>  <seq>
TTATCGGGAG

>  <system>
ATP;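 further: ATP exposure 15 min at 22 °C before imaging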

>  <switch fluorescence ratio>
0.996

$$$$
>  <seq>
TAAATGGAA

>  <system>
ATP;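 further: ATP exposure 15 min at 22 °C before imaging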

>  <switch fluorescence ratio>
1

$$$$
>  <seq>
TCGGATTGTG

>  <system>
ATP;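 further: ATP exposure 15 min at 22 °C before imaging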

>  <switch fluorescence ratio>
1.01

$$$$
>  <seq>
GCATTAAGAA

>  <system>
ATP;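 further: ATP exposure 15 min at 22 °C before imaging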

>  <switch fluorescence ratio>
1.01

$$$$
>  <seq>
GGGTGCCCTA

>  <system>
ATP;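 further: ATP exposure 15 min at 22 °C before imaging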

>  <switch fluorescence ratio>
0.986

$$$$
>  <seq>
ACTTTGAA

>  <system>
ATP;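 further: ATP exposure 15 min at 22 °C before imaging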

>  <switch fluorescence ratio>
1.01

$$$$
>  <seq>
TATGGGTAAT

>  <system>
ATP;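 further: ATP exposure 15 min at 22 °C before imaging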

>  <switch fluorescence ratio>
0.975

$$$$
>  <seq>
CCTGGGGCGT

>  <system>
ATP;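 further: ATP exposure 15 min at 22 °C before imaging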

>  <switch fluorescence ratio>
1.06

$$$$
>  <seq>
CAGTACTCTG

>  <system>
ATP;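 further: ATP exposure 15 min at 22 °C before imaging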

>  <switch fluorescence ratio>
0.986

$$$$
>  <seq>
CTCACTAGCG

>  <system>
ATP;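 further: ATP exposure 15 min at 22 °C before imaging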

>  <switch fluorescence ratio>
1.02

$$$$
>  <seq>
TATTCGCCCA

>  <system>
ATP;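 further: ATP exposure 15 min at 22 °C before imaging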

>  <switch fluorescence ratio>
1.11

$$$$
>  <seq>
GCATTCCGAA

>  <system>
ATP;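 further: ATP exposure 15 min at 22 °C before imaging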

>  <switch fluorescence ratio>
1.22

$$$$
>  <seq>
TGGGACACTG

>  <system>
ATP;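 further: ATP exposure 15 min at 22 °C before imaging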

>  <switch fluorescence ratio>
0.972

$$$$
>  <seq>
TTGATATGGA

>  <system>
ATP;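 further: ATP exposure 15 min at 22 °C before imaging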

>  <switch fluorescence ratio>
0.98

$$$$
>  <seq>
CGGGGGGAGG

>  <system>
ATP;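 further: ATP exposure 15 min at 22 °C before imaging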

>  <switch fluorescence ratio>
1.01

$$$$
>  <seq>
AGTGGTGGTG

>  <system>
ATP;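 further: ATP exposure 15 min at 22 °C before imaging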

>  <switch fluorescence ratio>
0.99

$$$$
>  <seq>
ATTTAGTTGT

>  <system>
ATP;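 further: ATP exposure 15 min at 22 °C before imaging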

>  <switch fluorescence ratio>
1.03

$$$$
>  <seq>
TTGAACGCGG

>  <system>
ATP;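 further: ATP exposure 15 min at 22 °C before imaging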

>  <switch fluorescence ratio>
1.05

$$$$
>  <seq>
GTTTGGGGCA

>  <system>
ATP;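 further: ATP exposure 15 min at 22 °C before imaging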

>  <switch fluorescence ratio>
0.994

$$$$
>  <seq>
GCCACATTTT

>  <system>
ATP;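 further: ATP exposure 15 min at 22 °C before imaging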

>  <switch fluorescence ratio>
0.945

$$$$
>  <seq>
CGTGGGGGGG

>  <system>
ATP;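 further: ATP exposure 15 min at 22 °C before imaging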

>  <switch fluorescence ratio>
1.02

$$$$
>  <seq>
GCATTGGCGG

>  <system>
ATP;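 further: ATP exposure 15 min at 22 °C before imaging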

>  <switch fluorescence ratio>
0.993

$$$$
